testedTarget: UniProtKB P21554
runDescription: CB-1 in vitro cAMP (HTRF) assay in HEK-293 cells
testParameters: HEK-293 cells stably transfected with human CB1R, 250 nM Forskolin, mean where tested more than once, read-out: CB-1 (HEK_cAMP) EC50
# label = Satisfied if EC50 < 20 nM else Not satisfied

Example cases with answers are listed next.
Problem: Strictly below 20 nM: is that where EC50 of NC(=O)c1cccc(S(=O)(=O)N2CCC(c3nn(CCO)c4ccc(C(c5ccc(Cl)cc5)c5ccc(Cl)cc5)cc34)CC2)c1 [Compound 82] sits?
Solution: Not satisfied

Problem: Entry O=C(O)c1ccc(S(=O)(=O)N2CCC(c3c4cc(C(c5ccc(Cl)cc5)c5ccc(Cl)cc5)ccc4nn3C3CC3)CC2)cn1 [Compound 160] please
Solution: Satisfied

Problem: Entry O=C(O)CS(=O)(=O)N1CCC(c2c3cc(C(c4ccc(Cl)cc4)c4ccc(Cl)cc4)ccc3nn2C2CC2)CC1 [Compound 131] please
Solution: Not satisfied

Problem: Entry NC(=O)c1ccc(S(=O)(=O)N2CCC(c3c4cc(C(c5ccc(Cl)cc5)c5ccc(Cl)cc5)ccc4nn3C3CC3)CC2)cc1Cl [Compound 153] please
Solution: Satisfied

Problem: Entry O=C(O)c1csc(CN2CCC(c3c4cc(C(c5ccc(Cl)cc5)c5ccc(Cl)cc5)ccc4nn3C3CC3)CC2)c1 [Compound 239] please
Solution: Not satisfied

***
Problem: Strictly below 20 nM: is that where EC50 of NC(=O)c1cccc(S(=O)(=O)N2CCC(c3nn(C4CC4)c4ccc(C(c5ccc(Cl)cc5)c5ccc(Cl)cc5)cc34)CC2)c1 [Compound 94] sits?
Solution: Not satisfied

Problem: Entry O=C(O)c1ccc(S(=O)(=O)N2CCC(c3nn(C4CC4)c4ccc(C(c5ccc(Cl)cc5)c5ccc(Cl)cc5)cc34)CC2)cc1 [Compound 89] please
Solution: Not satisfied

Problem: Entry O=S(=O)(c1ccc(O)cc1)N1CCC(Nc2n[nH]c3ccc(C(c4ccc(Cl)cc4)c4ccc(Cl)cc4)cc23)CC1 [Compound 130] please
Solution: Satisfied

Problem: Entry COc1ccc(S(=O)(=O)N2CCC(Nc3n[nH]c4ccc(C(c5ccc(Cl)cc5)c5ccc(Cl)cc5)cc34)CC2)cc1 [Compound 119] please
Solution: Not satisfied

Problem: Entry O=C(O)CS(=O)(=O)N1CCC(c2n[nH]c3ccc(C(c4ccc(Cl)cc4)c4ccc(Cl)cc4)cc23)CC1 [Compound 22] please
Solution: Not satisfied

----------
testedTarget: Human CB1R (Cannabanoid receptor 1) (Homo sapiens (Human), UniProt P21554)
Sequence (P21554 whole entry): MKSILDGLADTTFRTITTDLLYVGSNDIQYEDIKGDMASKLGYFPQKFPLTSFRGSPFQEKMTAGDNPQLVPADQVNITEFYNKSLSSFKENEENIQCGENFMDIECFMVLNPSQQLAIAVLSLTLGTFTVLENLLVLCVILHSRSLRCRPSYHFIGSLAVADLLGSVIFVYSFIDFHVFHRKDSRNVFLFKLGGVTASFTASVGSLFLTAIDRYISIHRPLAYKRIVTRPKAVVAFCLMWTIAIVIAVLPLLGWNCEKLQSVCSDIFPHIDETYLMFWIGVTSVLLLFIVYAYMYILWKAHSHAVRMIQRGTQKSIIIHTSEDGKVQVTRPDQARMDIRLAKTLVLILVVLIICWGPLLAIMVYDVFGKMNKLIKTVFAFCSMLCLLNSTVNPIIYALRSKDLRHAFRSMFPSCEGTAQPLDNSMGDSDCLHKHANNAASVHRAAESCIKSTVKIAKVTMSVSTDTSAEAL
runDescription: CB-1 in vitro cAMP (HTRF) assay in HEK-293 cells
testParameters: HEK-293 cells stably transfected with human CB1R, 250 nM Forskolin, mean where tested more than once, read-out: CB-1 (HEK_cAMP) EC50
measuredAttribute: EC50 (µM)
Give just the number in µM; leave the unit off.

Problem: So what's the measured EC50 for this one? NC(=O)c1ccc(CN2CCC(c3n[nH]c4ccc(C(c5ccc(Cl)cc5)c5ccc(Cl)cc5)cc34)CC2)cc1
Solution: 0.163

Problem: Entry O=C(O)c1cc(S(=O)(=O)N2CCC(c3c4cc(C(c5ccc(Cl)cc5)c5ccc(Cl)cc5)ccc4nn3C3CC3)CC2)ccc1Cl please
Solution: 0.002

Problem: Entry O=C(O)COc1ccc(N2CCC(c3n[nH]c4ccc(C(c5ccc(Cl)cc5)c5ccc(Cl)cc5)cc34)CC2)cc1 please
Solution: 4.69

Problem: Entry O=C(O)c1ccc([C@@H](c2ccc(Cl)cc2)c2ccc3[nH]nc(C4CCN(S(=O)(=O)C(F)(F)F)CC4)c3c2)cc1 please
Solution: 0.026

Problem: Entry O=C(O)c1ccc([C@@H](c2ccc(Cl)cc2)c2ccc3[nH]nc(N4CCN(S(=O)(=O)C(F)(F)F)CC4)c3c2)cc1 please
Solution: 0.016

Problem: Entry NC(=O)c1cccc(CN2CCC(c3n[nH]c4ccc(C(c5ccc(Cl)cc5)c5ccc(Cl)cc5)cc34)CC2)c1 please
Solution: 0.027

Problem: Entry COc1ccccc1S(=O)(=O)N1CCC(Nc2n[nH]c3ccc(C(c4ccc(Cl)cc4)c4ccc(Cl)cc4)cc23)CC1 please
Solution: 0.428

----------
testedTarget: Human CB2R (Cannabanoid receptor 2) (Homo sapiens (Human))
Sequence (P34972 whole entry): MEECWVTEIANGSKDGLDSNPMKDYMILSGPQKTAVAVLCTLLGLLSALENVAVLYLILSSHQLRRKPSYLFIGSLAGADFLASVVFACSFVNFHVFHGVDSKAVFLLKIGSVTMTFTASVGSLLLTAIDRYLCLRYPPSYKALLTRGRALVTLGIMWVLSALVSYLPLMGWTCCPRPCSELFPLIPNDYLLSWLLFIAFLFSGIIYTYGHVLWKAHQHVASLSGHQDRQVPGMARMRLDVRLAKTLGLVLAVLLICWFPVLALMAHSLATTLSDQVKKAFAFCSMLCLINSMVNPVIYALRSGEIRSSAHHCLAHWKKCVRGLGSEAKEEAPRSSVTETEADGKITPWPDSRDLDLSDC
runDescription: CB-2 in vitro cAMP (HTRF) assay in HEK-293 cells
testParameters: HEK-293 cells stably transfected with human CB2R, 250 nM Forskolin, mean where tested more than once, read-out: CB-2 (HEK_cAMP) EC50
Source text: CB1 and CB2 receptors are Gi-coupled GPCR. Activation of CB1 and CB2 receptors results in a decrease in cAMP production. An inverse agonist of the CB1 or CB2 receptor results in the opposite effect, an increase of cAMP production. The principle of this assay is based on HTRF® technology (Homogeneous Time-Resolved Fluorescence). […] The tracer binding is quantified by a Mab anti-cAMP labeled with Eu3+TBP-NHS Cryptate (supplied as part of the assay kit). […]
measuredAttribute: EC50

Problem: So what's the measured EC50 for this one? O=C(c1c[nH]nn1)N1CCC(c2n[nH]c3ccc(C(c4ccc(Cl)cc4)c4ccc(Cl)cc4)cc23)CC1 [Compound 145]
Solution: > 10 µM

Problem: Entry NC(=O)COc1cccc(N2CCC(c3c4cc(C(c5ccc(Cl)cc5)c5ccc(Cl)cc5)ccc4nn3C3CC3)CC2)c1 [Compound 195] please
Solution: 6.99 µM

Problem: Entry O=C(O)c1ccc(S(=O)(=O)N2CCC(Nc3n[nH]c4ccc(C(c5ccc(Cl)cc5)c5ccc(Cl)cc5)cc34)CC2)cc1 [Compound 129] please
Solution: > 10 µM

Problem: Entry NC(=O)c1cccc(C(=O)N2CCC(c3nn(C4CC4)c4ccc(C(c5ccc(Cl)cc5)c5ccc(Cl)cc5)cc34)CC2)c1 [Compound 98] please
Solution: > 10 µM

Problem: Entry COc1ccc(S(=O)(=O)N2CCC(c3c4cc(C(c5ccc(Cl)cc5)c5ccc(Cl)cc5)ccc4nn3C3CC3)CC2)cc1 [Compound 152] please
Solution: > 10 µM

Problem: Entry O=C(O)c1ccc(C(c2ccc(Cl)cc2)c2ccc3nn(C4CC4)c(C4CCN(S(=O)(=O)C(F)(F)F)CC4)c3c2)cc1 (centres unmarked) [Compound 238] please
Solution: > 10 µM

----------
runDescription: Mouse Fast PK/BBB
Format: in vivo, Male C57bl/6j mice
testParameters: male, C57bl/6j, brain, oral, Dose 30 mg/kg, Time 4 hr, read-out: BRAIN Mean Conc. (ng/mL) ± Std. Dev
Measured concentration at 4 hr of individual entries
Give just the number in ng/mL; leave the unit off.

Problem: So what's the measured concentration at 4 hr for this one? O=S(=O)(c1cccc(O)c1)N1CCC(c2c3cc(C(c4ccc(Cl)cc4)c4ccc(Cl)cc4)ccc3nn2C2CC2)CC1
Solution: 31.4

The record that follows has no concentration at 4 hr shown yet.
Problem: So what's the measured concentration at 4 hr for this one? NC(=O)c1cc(S(=O)(=O)N2CCC(c3c4cc(C(c5ccc(Cl)cc5)c5ccc(Cl)cc5)ccc4nn3C3CC3)CC2)ccc1Cl
Solution: 54.8

----------
Measured pEC50 of individual entries
testedTarget: Human CB1R (Cannabanoid receptor 1) (Homo sapiens (Human))
runDescription: CB-1 in vitro cAMP (HTRF) assay in HEK-293 cells
testParameters: HEK-293 cells stably transfected with human CB1R, 250 nM Forskolin, mean where tested more than once, read-out: CB-1 (HEK_cAMP) EC50
Lab note — pEC50 values are minus log10 of concentrations in M.

Problem: Can you look up pEC50 on Human CB1R (Cannabanoid receptor 1) (Homo sapiens (Human)) for O=C(c1nnc[nH]1)N1CCC(c2n[nH]c3ccc(C(c4ccc(Cl)cc4)c4ccc(Cl)cc4)cc23)CC1 ?
Solution: 5.26

Problem: Entry O=C(O)Cc1ccc(N2CCC(c3n[nH]c4ccc(C(c5ccc(Cl)cc5)c5ccc(Cl)cc5)cc34)CC2)cc1 please
Solution: 5.53

Problem: Entry O=C(O)CCNC(=O)c1ccc(-n2nc(C3CCN(S(=O)(=O)C(F)(F)F)CC3)c3cc(C(c4ccc(Cl)cc4)c4ccc(Cl)cc4)ccc32)cc1 please
Solution: 5.49

Problem: Entry O=S(=O)(N1CCC(c2nn(CCO)c3ccc(C(c4ccc(Cl)cc4)c4ccc(Cl)cc4)cc23)CC1)C(F)(F)F please
Solution: 7.85

Problem: Entry COc1ccc(S(=O)(=O)N2CCC(c3c4cc(C(c5ccc(Cl)cc5)c5ccc(Cl)cc5)ccc4nn3C3CC3)CC2)cc1C(=O)O please
Solution: 7.59

***
Problem: Can you look up pEC50 on Human CB1R (Cannabanoid receptor 1) (Homo sapiens (Human)) for COC(=O)CC(=O)N1CCC(c2n[nH]c3ccc(C(c4ccc(Cl)cc4)c4ccc(Cl)cc4)cc23)CC1 ?
Solution: 6.82

Values from patent US9682940B2
